Known pEC50 of a selection of compounds
- study-system: human GPR40 (Homo sapiens, UniProt O14842)
- Construct: host or cells: HEK-293
- Sequence (O14842 whole entry): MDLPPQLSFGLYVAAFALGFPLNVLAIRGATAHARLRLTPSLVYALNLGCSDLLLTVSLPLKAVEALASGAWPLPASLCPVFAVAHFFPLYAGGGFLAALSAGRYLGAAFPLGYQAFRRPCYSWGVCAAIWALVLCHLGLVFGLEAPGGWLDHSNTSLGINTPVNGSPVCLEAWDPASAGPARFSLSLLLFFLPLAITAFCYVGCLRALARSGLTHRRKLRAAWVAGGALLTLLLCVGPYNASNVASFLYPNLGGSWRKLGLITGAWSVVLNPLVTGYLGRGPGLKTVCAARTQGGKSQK
- assay-protocol: Activation of GPR40 protein: intracellular calcium change (Fluo-4, Flexstation 3) in transfected HEK-293 cells
- Type: cell-based
- assay-conditions: HEK-293 cells transfected with human GPR40; intracellular calcium; read-out: EC50
- Method: The activation of GPR40 protein by a novel 3-(4-(benzyloxy)phenyl)hex-4-ynoic acid derivative of the present invention was evaluated through the change in intracellular calcium concentration due to the activity of GPR40 protein. […] Two hours after the initiation of the culture, the prepared samples were automatically injected into the cells using Flexstation 3 (Molecular Devices), and then, the change in intracellular calcium concentration was measured using SoftMax®Pro software for 120 seconds. […]
pEC50: −log10 of the molar value.

Known pEC50 results, listed for orientation:
CC#CC(CC(=O)O)c1ccc(OCc2ccc(CN3CCN(c4ccc(F)cc4)CC3)cc2)cc1 (stereo not shown)    < 6.52
CC#CC(CC(=O)O)c1ccc(OCc2cccc(C3=CCC4(CC3)OCCO4)c2)cc1 (stereo not shown) [Example 1]    < 6.52
CC#C[C@@H](CC(=O)O)c1ccc(OCc2ccc(CN3CCC(c4ccccc4)C3)cc2)cc1 (stereo partly shown)    < 6.52

Now consider a different compound.
Give the measured pEC50 of CC#C[C@@H](CC(=O)O)c1ccc(OCc2ccc(CN3Cc4ccccc4C3)cc2)cc1 . > 6.70

* * *

- System: Male Sprague Dawley rats
- assay-protocol: Oral glucose tolerance test (OGTT) 1
- Format: in vivo
- assay-conditions: Rattus norvegicus, 2 h; SD rats; 10 mg/kg oral; glucose 4 g/kg 30 minutes after; read-out: % AUC (reduction (%) of blood glucose AUC)
reported-property: inhibition in vivo at 10 mg/kg (%)
Write it as a number; the unit % goes unstated.

Known inhibition in vivo at 10 mg/kg results, listed for orientation:
CC#C[C@@H](CC(=O)O)c1ccc(OCc2ccc(CN3Cc4ccccc4C3)cc2)cc1 [Example 37]    28.5
CC#C[C@@H](CC(=O)O)c1ccc(OCc2ccc(CN3CCN(c4nc5ccccc5s4)CC3)cc2)cc1 [Example 43]    21.2
CC#C[C@@H](CC(=O)O)c1ccc(OCc2ccc(CN3CCN(c4ccc(OCOC)cc4)CC3)cc2)cc1 [Example 29]    27.1
CC#C[C@@H](CC(=O)O)c1ccc(OCc2ccc(CN3CCCc4ccccc43)cc2)cc1 [Example 41]    23.7

Give the measured inhibition in vivo at 10 mg/kg of CC#CC(CC(=O)O)c1ccc(OCc2cccc(C3=CCC(=O)CC3)c2)cc1 (stereo not shown) [Example 4] . 16.2

Give the measured inhibition in vivo at 10 mg/kg of CC#CC(CC(=O)O)c1ccc(OCc2cccc(C3=CCC(O)CC3)c2)cc1 (stereo not shown) [Example 6] . 15.2

Give the measured inhibition in vivo at 10 mg/kg of CC#CC(CC(=O)O)c1ccc(OCc2ccc(C3=CCC4(CC3)OCCO4)cc2)cc1 (stereo not shown) [Example 3] . 12.5
